EXPERIMENTAL TARGET: Proteinase-activated receptor 2 (Homo sapiens, UniProt P55085)
Sequence (P55085 whole entry): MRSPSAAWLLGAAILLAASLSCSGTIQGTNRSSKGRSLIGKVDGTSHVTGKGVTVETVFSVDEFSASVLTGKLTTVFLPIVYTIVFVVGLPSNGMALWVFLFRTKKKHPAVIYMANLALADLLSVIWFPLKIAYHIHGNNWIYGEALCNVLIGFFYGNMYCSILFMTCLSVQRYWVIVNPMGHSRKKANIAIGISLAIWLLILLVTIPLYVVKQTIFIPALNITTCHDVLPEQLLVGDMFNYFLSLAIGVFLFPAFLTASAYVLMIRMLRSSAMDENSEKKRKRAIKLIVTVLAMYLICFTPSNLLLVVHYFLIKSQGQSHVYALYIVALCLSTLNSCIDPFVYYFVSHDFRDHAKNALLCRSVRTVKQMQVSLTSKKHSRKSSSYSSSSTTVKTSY
ASSAY NAME: Agonist activity at PAR2 in human EA.hy926 cells assessed as stimulation of calcium mobilization by Fluo-4-AM dye-based FLIPR assay
Format: functional, cell-based, EA.hy 926
Where a SMILES comes first, the peptide text is derived from it. [ ]: non-standard residue; d: D form. The star is where a group is joined. Orn = NCCC[C@H](N)C(=O)O; 2Furoyl = O=C(c1ccco1)*
OBSERVABLE: EC50 (nM)
Express it in nM; write the number only.

Field: example entries. Status: answers known.
COCc1cn(CCOCCOCCOCCOCCOCCOCCNC(=O)[C@@H](NC(=O)[C@H](CC2CCCCC2)NC(=O)c2ccno2)C2CCCCC2)nn1 = 890
CC[C@H](C)[C@H](NC(=O)[C@H](CC(C)C)NC(=O)c1ccco1)C(=O)NCC(=O)N[C@@H](CCCN=C(N)N)C(=O)N[C@@H](CC(C)C)C(=O)N[C@@H](CCCN)C(N)=O (2Furoyl-LIGRL[Orn]-NH2) = 350
N=C(N)NCCC[C@@H]1NC[C@H](Cc2cn(CCOCCOCCOCCOCCOCCOCCOCCOCCOCCOCCOCCOCCOCCOCCOCCOCCOCCOCCOCCOCCOCCOCCOCCNC(=O)[C@@H](NC(=O)[C@H](CC3CCCCC3)NC(=O)c3ccno3)C3CCCCC3)nn2)NC(=O)[C@@H](Cc2ccccc2)NC(=O)[C@H](CC(=O)O)NC(=O)CNC1=O = 2500
CC[C@H](C)[C@H](NC(=O)[C@H](CC(C)C)NC(=O)c1ccco1)C(=O)NCC(=O)N[C@@H](CCCNC(=N)N)C(=O)N[C@@H](CC(C)C)C(=O)N[C@@H](CCCN)C(=O)NCCOCCOCCOCCOCCOCCOCCOCCOCCOCCOCCOCCOCCOCCOCCOCCOCCOCCOCCOCCOCCOCCOCCOCCn1cc(C[C@H]2CN[C@@H](CCCNC(=N)N)C(=O)NCC(=O)N[C@@H](CC(=O)O)C(=O)N[C@H](Cc3ccccc3)C(=O)N2)nn1 = 130

INPUT: Report EC50 for CC[C@H](C)[C@H](NC(=O)[C@H](CC(C)C)NC(=O)c1ccco1)C(=O)NCC(=O)N[C@@H](CCCNC(=N)N)C(=O)N[C@@H](CC(C)C)C(=O)N[C@@H](CCCN)C(=O)NCCOCCOCCOCCOCCOCCOCCOCCOCCn1cc(C[C@H]2CN[C@@H](CCCNC(=N)N)C(=O)NCC(=O)N[C@@H](CC(=O)O)C(=O)N[C@H](Cc3ccccc3)C(=O)N2)nn1 please.
OUTPUT: 62
